# ASSAYED SYSTEM: IFN-αI (human, UniProt P01571 24-189)
# EXPERIMENT DESCRIPTION: cell-based or functional assay
IC50 (pM), ISRE assay for assorted binders
Enter your answer as a number in pM; do not include the unit.

Solved cases below.
IFWM3308 (antibody, IgG1, V domains shown) VH: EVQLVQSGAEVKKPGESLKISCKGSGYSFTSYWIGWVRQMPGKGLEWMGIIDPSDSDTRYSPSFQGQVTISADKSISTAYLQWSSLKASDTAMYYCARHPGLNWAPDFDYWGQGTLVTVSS VL: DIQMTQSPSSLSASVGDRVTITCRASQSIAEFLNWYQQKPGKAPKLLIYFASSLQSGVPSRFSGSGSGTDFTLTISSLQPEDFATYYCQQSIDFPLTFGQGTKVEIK: 478
IFWM3314 (antibody, IgG1, V domains shown) VH: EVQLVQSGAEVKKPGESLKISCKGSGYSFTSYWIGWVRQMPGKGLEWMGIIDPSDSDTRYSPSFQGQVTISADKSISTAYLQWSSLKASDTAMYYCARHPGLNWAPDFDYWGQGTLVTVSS VL: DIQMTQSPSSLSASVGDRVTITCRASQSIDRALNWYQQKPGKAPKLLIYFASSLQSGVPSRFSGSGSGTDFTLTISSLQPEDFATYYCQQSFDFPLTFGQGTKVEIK: 163

What does the record list as IC50 (pM), ISRE assay for IFWM3385 (antibody, IgG1, V domains shown) VH: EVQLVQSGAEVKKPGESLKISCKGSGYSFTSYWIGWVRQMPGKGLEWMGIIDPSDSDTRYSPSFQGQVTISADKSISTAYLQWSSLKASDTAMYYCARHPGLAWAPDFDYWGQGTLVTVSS VL: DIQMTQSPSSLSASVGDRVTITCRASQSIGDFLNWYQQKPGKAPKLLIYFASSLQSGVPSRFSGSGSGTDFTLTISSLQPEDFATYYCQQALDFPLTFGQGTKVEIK ?
225

Data credit: patent US20150368338A1
